Tested on: vaccinia virus
Details: 10 μM
Please go through the items and note down their % Viability.
Give bare numbers, in %.

Solved cases below.
[[record]]
compound = "CCCCCN(CCCCC)CCCC(C)C1CCC2C3C(OCCCN)CC4CC(OCCCN)CCC4(C)C3CC(OCCCN)C12C.Cl.Cl.Cl.Cl (stereo not drawn)"
endpoint_label = "% Viability"
units_label = "%"
readout_value = 14.49

[[record]]
compound = "CCCOCCCC(C)C1CCC2C3C(OCCCN)CC4CC(OCCCN)CCC4(C)C3CC(OCCCN)C12C (stereo not drawn)"
endpoint_label = "% Viability"
units_label = "%"
readout_value = 19.48


Now consider the entry below.
Entry CCCCCCCCNCCC[C@@H](C)[C@H]1CC[C@H]2[C@@H]3[C@H](OCCCN)C[C@@H]4C[C@H](OCCCN)CC[C@]4(C)[C@H]3C[C@H](OCCCN)[C@]12C — recorded % Viability = 8.82

Origin of values: patent US7754705B2
